B1: Caulobacter ParB omega fusion; a variant is named by its letters at X, in order, B8GW30 (parent)
chain: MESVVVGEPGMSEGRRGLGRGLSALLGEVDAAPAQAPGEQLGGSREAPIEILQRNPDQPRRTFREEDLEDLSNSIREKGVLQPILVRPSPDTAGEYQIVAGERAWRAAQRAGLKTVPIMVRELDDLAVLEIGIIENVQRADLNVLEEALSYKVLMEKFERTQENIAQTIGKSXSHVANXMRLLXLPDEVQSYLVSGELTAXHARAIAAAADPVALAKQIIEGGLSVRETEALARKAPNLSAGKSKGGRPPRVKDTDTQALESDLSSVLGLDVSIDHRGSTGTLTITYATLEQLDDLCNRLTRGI

# Variants of: B1
# protocol.text: one-hybrid fitness for binding NBS DNA (the Noc-binding site; scaled: cognate 1, non-cognate 0); higher = stronger binding
# experimental.context: with NBS DNA site
The full ranking holds about 81,000 sequences; the median of “one-hybrid fitness for binding NBS DNA” is about -0.1, and the highest 2% start at about 0.36. The sample holds the highest values, similar sequences and a random draw of the others, so the mix is not that of the screen.
Task for the reader: assign each of the following variants its reported one-hybrid fitness for binding NBS DNA.

Example entries begin here.
GRQR ... ≤ 0.2
RQTT ... 0.487
QCNI ... ≤ 0.2
EYKR ... ≤ 0.2
CSAE ... ≤ 0.2
QRNI ... 0.403
RKVT ... 0.512
RKKG ... 0.227

// for each variant in input: emit one-hybrid fitness for binding NBS DNA
1. DRVR
2. PSTH
3. GGMT

1: ≤ 0.2; 2: ≤ 0.2; 3: ≤ 0.2
